# studySystem: UGT2B7 (Homo sapiens, UniProt P16662)
# Sequence (P16662 24-529): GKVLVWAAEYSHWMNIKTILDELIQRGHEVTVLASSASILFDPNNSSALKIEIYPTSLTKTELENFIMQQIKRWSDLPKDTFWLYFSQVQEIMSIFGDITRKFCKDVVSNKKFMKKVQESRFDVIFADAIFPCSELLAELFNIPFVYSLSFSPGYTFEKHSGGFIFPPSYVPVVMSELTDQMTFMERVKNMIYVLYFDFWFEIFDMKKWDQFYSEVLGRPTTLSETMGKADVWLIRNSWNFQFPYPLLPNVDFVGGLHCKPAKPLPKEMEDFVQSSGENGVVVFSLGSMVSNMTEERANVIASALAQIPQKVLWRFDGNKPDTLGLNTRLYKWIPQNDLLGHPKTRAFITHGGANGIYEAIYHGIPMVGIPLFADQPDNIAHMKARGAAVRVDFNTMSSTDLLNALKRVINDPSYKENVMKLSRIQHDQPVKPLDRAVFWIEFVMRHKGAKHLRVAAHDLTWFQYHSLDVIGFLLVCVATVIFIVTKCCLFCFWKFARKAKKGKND
# assayProtocol: Glucuronidation by expressed UGT2B7
# experimentalConditions: expressed UGT2B7 (Supersome)
parameter: microsomal CLint (µL/min/mg)
Reply numerically in µL/min/mg, unit not repeated.

Lookup: Look up microsomal CLint: Cc1cn([C@H]2C[C@H](N=[N+]=[N-])[C@@H](CO)O2)c(=O)[nH]c1=O [AZT, zidovudine, reference compound]
Found: 0.26

---

# assayProtocol: Glucuronidation by guinea pig liver microsomes (GpLM)
# Type: in vitro ADME
# experimentalConditions: guinea pig, liver microsomes, pH 7.4, formation of G2 (7-O-glucuronide), read-out: Km or S50
# Experimental: The reaction was terminated by adding ice-cold acetonitrile. […] All experiments were performed in triplicate. The parameter were as follow. V is the formation rate of the product. Vmax is the maximal velocity. […] Ksi is the substrate inhibition constant. […] (1) V=Vmax ×[S]/Km+[S] (2) V=Vmax ×[S]/Km + [S](1+[S]/Ksi)
parameter: Km (nM)
Field: numeric (nM). Do not append units.

Lookup: Item under review: COc1ccc(-c2oc3c(CCC(C)(C)O)c(O)cc(O)c3c(=O)c2O)cc1 [wushanicaritin] . Reported Km?
Found: 930
